All values here come from the supplement of paper PMC13380429.

cell viability for assorted compounds
Test system: U2OS
assay_protocol: cell viability relative to DMSO; higher = less toxic
particulars: 72 h; 100 nM
Record the result as number plus unit.

| compound | experimental_system | cell viability |
| --- | --- | --- |
| O=C(Nc1ccc(S(=O)(=O)Nc2ccccc2Cl)c(Cl)c1)c1ccccn1 | U2OS | 103% |
| CCC(C)CCCC(=O)N[C@@H](CCN)C(=O)N[C@H](C(=O)N[C@@H](CCN)C(=O)N[C@H]1CCNC(=O)[C@H]([C@@H](C)O)NC(=O)[C@H](CCN)NC(=O)[C@H](CCN)NC(=O)[C@H](CC(C)C)NC(=O)[C@@H](CC(C)C)NC(=O)[C@H](CCN)NC1=O)[C@@H](C)O (stereo partly drawn) | U2OS | 97.8% |

Please look at the following compound next.
Prompt: Input CCN(CC)C(=O)/C(C#N)=C/c1cc(O)c(O)c([N+](=O)[O-])c1 , output reported cell viability.
Completion: 98%

* * *

Catalogue of cell viability values
Tested on: Calu-3
assay_protocol: cell viability relative to DMSO; higher = less toxic
particulars: 72 h; 1000 nM
Give your result in % as a bare value.

Answered cases to consult:
| molecular_string | cell viability / % |
| --- | --- |
| O=C(Nc1cc(C(F)(F)F)cc(C(F)(F)F)c1)c1cc(Cl)ccc1O | 99.8 |
| O=c1c(-c2ccc(O)cc2)coc2cc(O)cc(O)c12 | 103 |
| CC(=O)Nc1ccc(C(=O)O)cc1 | 100 |
| CCCC(CCC)C(=O)O[C@H]1C[C@H]2CC[C@@H](C1)[N+]2(C)C | 97.6 |

Prompt: Look up and report measured cell viability (Calu-3) for the following compound: O=C(O)c1ccccc1C(=O)Nc1ccc(-c2ccccc2)cc1
Completion: 102

* * *

System: U2OS
assay_protocol: cell viability relative to DMSO; higher = less toxic
particulars: 72 h; 100 nM
cell viability for assorted compounds

| molecular_string | cell viability |
| --- | --- |
| CC[C@H]1[C@@H](O)[C@@H]2[C@H](CC[C@]3(C)[C@@H]([C@H](C)CCOS(=O)(=O)O)CC[C@@H]23)[C@@]2(C)CC[C@@H](O)C[C@@H]12 | 102% |
| CC(=O)Nc1c(I)c(C(=O)O)c(I)c(N(C)C(C)=O)c1I | 95.9% |
| c1ccc(CNc2nc(NCc3ccccc3)c3ccccc3n2)cc1 | 97.1% |

Shift focus to the following entry.
Prompt: Answer with the recorded cell viability of CN(C(=O)Cc1ccc(Cl)c(Cl)c1)[C@H](CN1CCCC1)c1ccccc1 only.
Completion: 101%

* * *

Quick reference: drug sensitivity score of the listed items.
Test system: Vero E6
assay_protocol: drug sensitivity score (DSS) for viability; higher = more toxic; extreme values may be limits of the assay
particulars: 72 h
Just the number, please, no unit after it.

| compound | drug sensitivity score |
| --- | --- |
| O=C(NCc1ccc(F)cc1)N1CCN2C(=O)OC(c3ccccc3)(c3ccccc3)[C@@H]2C1 (racemic) | 0 |
| c1cc2c3c(c1)c1c(n3CCNC2)CCCC1 | 0 |
| O=C(O)c1ccccc1S | 0 |
| Nc1cccc2c(=O)[nH][nH]c(=O)c12 [monosodium-alpha-luminol] | 0 |
| C/C(=N\NC(=O)C(NC(=O)c1ccccc1)c1n[nH]c(=O)c2ccccc12)c1cccc(Br)c1 (configuration not stated) | 0 |

Prompt: Return drug sensitivity score for the following compound: COc1ccc2c(c1)[C@]13CCCC[C@@H]1[C@H](C2)N(C)CC3
Completion: 0

Prompt: Give the value of drug sensitivity score reported for the following: O=C(OCCOCCO)c1ccccc1Nc1cccc(C(F)(F)F)c1 [etofenamate]
Completion: 1.5

Prompt: Please supply the value of reported drug sensitivity score for the item CO[C@@]1(NC(=O)C(C(=O)O)c2ccc(O)cc2)C(=O)N2C(C(=O)O)=C(CSc3nnnn3C)CO[C@@H]21 (some centres not stated)
Completion: 0

Prompt: // fetch drug sensitivity score given entry CC(C)N(CC[C@H](c1ccccc1)c1cc(CO)ccc1O)C(C)C [5-hydroxymethyl-tolterodine]
Completion: 0

Prompt: Name the recorded drug sensitivity score of the compound listed here: CO[C@@H]1[C@H](N(C)C(=O)c2ccccc2)C[C@H]2O[C@]1(C)n1c3ccccc3c3c4c(c5c6ccccc6n2c5c31)C(=O)NC4
Completion: 7.8

Prompt: State its drug sensitivity score for this compound: CC(=O)O[C@]1(C(C)=O)CC[C@H]2[C@@H]3C=C(C)C4=CC(=O)CC[C@]4(C)[C@H]3CC[C@@]21C [megestrol-acetate]
Completion: 0

Prompt: Give drug sensitivity score for the following compound: O=C(Nc1cccnn1)N1CCC(=Cc2cccc(Oc3ccc(C(F)(F)F)cn3)c2)CC1
Completion: 0

Prompt: Return the recorded drug sensitivity score value; entry: O=C(O)[C@H]1CN(CCCP(=O)(O)O)CCN1
Completion: 0

Prompt: Consider the compound CC(C)(C)n1nc(-c2ccc(Cl)cc2)c2c(N)ncnc21 and give its recorded drug sensitivity score.
Completion: 3.5

Prompt: Recall and state the measured drug sensitivity score for O=P(O)(O)CN(CCN(CP(=O)(O)O)CP(=O)(O)O)CP(=O)(O)O .
Completion: 0

Prompt: Determine from records and report drug sensitivity score for CCC(C)(Oc1ccc(C2(c3ccc(OC(C)(CC)C(=O)O)cc3)CCCCC2)cc1)C(=O)O (configuration not stated) [clinofibrate]
Completion: 0

Prompt: Write down drug sensitivity score measured for item CC(=O)N(CC(C)C(=O)O)c1c(I)cc(I)c(N)c1I (configuration not stated)
Completion: 0

* * *

Tested on: Vero E6
assay_protocol: cell viability relative to DMSO; higher = less toxic
particulars: 72 h; 10000 nM
value_kind: cell viability (%)
# value in %; strip the unit string

Would you please look over these solved cases?
| compound | output_unit | recorded_number |
| --- | --- | --- |
| CN(C)C(=O)n1nnnc1Cc1ccc(-c2ccccc2)cc1 | % | 29.1 |
| Cc1cccc(/C=N/Nc2cc(N3CCOCC3)n3nc(-c4ccncc4)cc3n2)c1 | % | 38.2 |
| Cc1cccc(C(C)c2c[nH]cn2)c1C (centres undefined) | % | 101 |
| COc1ccc2cc(CCC(C)=O)ccc2c1 | % | 88.1 |
| O=C(O)COc1ccc(OCCNC[C@H](O)COc2ccccc2)cc1 | % | 92.6 |

Prompt: Hello, please tell me recorded cell viability for this one: CC(=O)NCCc1c(Cc2ccccc2)[nH]c2ccccc12
Completion: 97.4

Prompt: For the compound COc1ccsc1CNCC[C@@]1(c2ccccn2)CCOC2(CCCC2)C1 , give its reported cell viability.
Completion: 96.6

Prompt: Supply cell viability value. Item: Cc1oc(=O)oc1COC(=O)C1=C([C@H]2CCCO2)S[C@@H]2[C@@H]([C@@H](C)O)C(=O)N12
Completion: 97.9

Prompt: Give recorded cell viability. CC(=O)N(C)c1cccc(-c2ccnc3c(C(=O)c4cccs4)cnn23)c1
Completion: 91.3

* * *

Documented cell viability across a set of molecules
Tested on: HepG2
assay_protocol: cell viability relative to DMSO; higher = less toxic
particulars: 72 h; 1000 nM
Kindly answer with a numeric value in %, unit omitted.

| molecule | recorded_number |
| --- | --- |
| CCn1cc(C(=O)O)c(=O)c2cnc(N3CCCC3)nc21 | 103 |

Prompt: # return recorded cell viability for input O=C(Nc1cc(C(F)(F)F)cc(C(F)(F)F)c1)c1cc(Cl)ccc1O
Completion: 17.2

Prompt: Please indicate cell viability recorded for O=C(O)Cc1ccc(OCc2ccccc2)c(Cl)c1
Completion: 87.1

Prompt: Annotate the molecule O=C(c1ccccc1)c1ccc2n1CCC2C(=O)O (stereo unspecified) with its measured cell viability.
Completion: 97.7

Prompt: Please list cell viability recorded for the molecule Cc1c(NC(=O)OC[C@@H]2COCCN2)cn2ncnc(Nc3ccc4c(cnn4Cc4cccc(F)c4)c3)c12
Completion: 99.1

Prompt: Supply recorded cell viability for Cc1cc(N)c2ccccc2[n+]1CCCCCCCCCC[n+]1c(C)cc(N)c2ccccc21 here.
Completion: 76.2

Prompt: Please list cell viability recorded for the molecule CCCCc1oc2ccc(NS(C)(=O)=O)cc2c1C(=O)c1ccc(OCCCN(CCCC)CCCC)cc1
Completion: 99.6

Prompt: Return value of cell viability for input COc1cccc2c1C(=O)c1c(O)c3c(c(O)c1C2=O)C[C@@](O)(/C(CO)=N/NC(=O)CCCCCN1C(=O)C=CC1=O)C[C@@H]3O[C@H]1C[C@H](N)[C@H](O)[C@H](C)O1 , no commentary.
Completion: 20.3

Prompt: Please give measured cell viability of the following entry: CCN(CCO)CCCOc1ccc2c(Nc3cc(CC(=O)Nc4cccc(F)c4)[nH]n3)ncnc2c1
Completion: 72.8

* * *

System: Calu-3
assay_protocol: cell viability relative to DMSO; higher = less toxic
particulars: 72 h; 1 nM
Listed next: entries and their corresponding cell viability.
Expressed in %, but write only the number.

# annotated cases, reported cell viability shown
| compound | experimental_system | output_unit | cell viability |
| --- | --- | --- | --- |
| O=S(=O)(NCCNC/C=C/c1ccc(Br)cc1)c1cccc2cnccc12 | Calu-3 | % | 79.7 |
| COc1ccc2cc(CCC(C)=O)ccc2c1 | Calu-3 | % | 98.2 |
| OC1=c2ccccc2=C(NC2CCCCC2)/C1=C\c1ccccc1 | Calu-3 | % | 89.1 |
| CC(=O)N(C)c1cccc(-c2ccnc3c(C(=O)c4cccs4)cnn23)c1 | Calu-3 | % | 99.4 |
| c1ccc([C@H]2CNCc3ccccc32)cc1 [4-phenyl-1,2,3,4-tetrahydroisoquinoline] | Calu-3 | % | 101 |

Prompt: Consider the compound O=C(O)CNC(=O)c1ccccc1 tested on Calu-3; state its cell viability.
Completion: 99

Prompt: State measured cell viability of the compound CCc1c(C(=O)NCCc2ccc(N3CCCCC3)cc2)[nH]c2ccc(Cl)cc12 with Calu-3.
Completion: 95.8

Prompt: Answer briefly: cell viability recorded on Calu-3 for Nc1cccc2c(=O)[nH][nH]c(=O)c12 [monosodium-alpha-luminol]
Completion: 98.5

Prompt: Specify cell viability for CCN1CCCC(OC(=O)C(c2ccccc2)c2ccccc2)C1 (stereo not given) [piperidolate] , system Calu-3.
Completion: 99.1

Prompt: Provide cell viability, tested on Calu-3, for c1cc2c3c(c1)c1c(n3CCNC2)CCCC1 .
Completion: 110
